Hello, the source for this data is paper PMC12560751, in case you need it.

biological target: AChE (Homo sapiens, UniProt P22303); assay: Anticholinesterase activity, modified colorimetric Ellman method; assay type: biochemical; settings: read-out: AChE % inhibition
Sequence (P22303 32-614): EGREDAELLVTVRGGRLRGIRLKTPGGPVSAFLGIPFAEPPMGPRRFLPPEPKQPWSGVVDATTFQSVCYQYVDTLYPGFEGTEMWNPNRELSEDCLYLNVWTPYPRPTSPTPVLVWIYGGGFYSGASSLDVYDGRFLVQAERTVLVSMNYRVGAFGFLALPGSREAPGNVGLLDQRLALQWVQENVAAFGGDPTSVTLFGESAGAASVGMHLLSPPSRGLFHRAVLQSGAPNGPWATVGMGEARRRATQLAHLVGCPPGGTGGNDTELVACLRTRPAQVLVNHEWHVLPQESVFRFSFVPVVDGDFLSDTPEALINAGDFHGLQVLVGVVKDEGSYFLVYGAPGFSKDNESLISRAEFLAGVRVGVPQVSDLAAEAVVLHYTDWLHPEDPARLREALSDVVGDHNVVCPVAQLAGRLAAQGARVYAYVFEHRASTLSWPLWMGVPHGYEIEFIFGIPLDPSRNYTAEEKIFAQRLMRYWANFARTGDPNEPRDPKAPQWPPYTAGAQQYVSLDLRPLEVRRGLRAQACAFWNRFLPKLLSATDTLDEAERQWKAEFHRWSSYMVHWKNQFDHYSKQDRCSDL

| compound | inhibition at 100 µM / % |
| --- | --- |
| C=CCN1CCN(CC(=O)Nc2ccc(C=CC(=O)c3ccc(OC)c(OC)c3)cc2)CC1 [Compound 4d] | 40 |
| CCN1CCN(CC(=O)Nc2ccc(C=CC(=O)c3ccc(OC)c(OC)c3)cc2)CC1 [Compound 4b] | 88.7 |
| C#CCN1CCN(CC(=O)Nc2ccc(C=CC(=O)c3ccc(OC)c(OC)c3)cc2)CC1 [Compound 4e] | 39.4 |
| COc1ccc(C(=O)C=Cc2ccc(NC(=O)CN3CCN(C)CC3)cc2)cc1OC [Compound 4a] | 90.3 |
| COc1ccc(C(=O)C=Cc2ccc(NC(=O)CN3CCN(C(C)C)CC3)cc2)cc1OC [Compound 4c] | 48.2 |
| COc1ccc(C(=O)C=Cc2ccc(NC(=O)CN3CCN(CCCN(C)C)CC3)cc2)cc1OC [Compound 4k] | 94.1 |
| COc1ccc(C(=O)C=Cc2ccc(NC(=O)CN3CCN(C=O)CC3)cc2)cc1OC [Compound 4f] | 94.8 |
| COCCN1CCN(CC(=O)Nc2ccc(C=CC(=O)c3ccc(OC)c(OC)c3)cc2)CC1 [Compound 4h] | 86.5 |
| COc1ccc(C(=O)C=Cc2ccc(NC(=O)CN3CCN(C(C)=O)CC3)cc2)cc1OC [Compound 4g] | 96.4 |
| COc1ccc(C(=O)C=Cc2ccc(NC(=O)CN3CCN(CCCO)CC3)cc2)cc1OC [Compound 4i] | 90.5 |
| COc1ccc(C(=O)C=Cc2ccc(NC(=O)CN3CCN(CCN(C)C)CC3)cc2)cc1OC [Compound 4j] | 92.2 |
| COc1ccc(C(=O)C=Cc2ccc(NC(=O)CN3CCN(S(C)(=O)=O)CC3)cc2)cc1OC [Compound 4m] | 87.6 |
| COc1ccc(C(=O)C=Cc2ccc(NC(=O)CN3CCN(C4CCCC4)CC3)cc2)cc1OC [Compound 4l] | 40.3 |

---

molecular target: recombinant hMAO B (Homo sapiens); test: MAO B inhibition, fluorometric method; assay type: biochemical; settings: read-out: MAO B % inhibition
Catalogue of inhibition at 100 µM values
readout_name: inhibition at 100 µM

| molecule | value_measured |
| --- | --- |
| C=CCN1CCN(CC(=O)Nc2ccc(C=CC(=O)c3ccc(OC)c(OC)c3)cc2)CC1 [Compound 4d] | 30.1% |
| COc1ccc(C(=O)C=Cc2ccc(NC(=O)CN3CCN(S(C)(=O)=O)CC3)cc2)cc1OC [Compound 4m] | 29% |
| COc1ccc(C(=O)C=Cc2ccc(NC(=O)CN3CCN(C=O)CC3)cc2)cc1OC [Compound 4f] | 88.6% |
| COc1ccc(C(=O)C=Cc2ccc(NC(=O)CN3CCN(C4CCCC4)CC3)cc2)cc1OC [Compound 4l] | 29.7% |
| C#CCN1CCN(CC(=O)Nc2ccc(C=CC(=O)c3ccc(OC)c(OC)c3)cc2)CC1 [Compound 4e] | 39.3% |

---

Biological target: recombinant hMAO B (Homo sapiens)
Sequence (P27338 1-520): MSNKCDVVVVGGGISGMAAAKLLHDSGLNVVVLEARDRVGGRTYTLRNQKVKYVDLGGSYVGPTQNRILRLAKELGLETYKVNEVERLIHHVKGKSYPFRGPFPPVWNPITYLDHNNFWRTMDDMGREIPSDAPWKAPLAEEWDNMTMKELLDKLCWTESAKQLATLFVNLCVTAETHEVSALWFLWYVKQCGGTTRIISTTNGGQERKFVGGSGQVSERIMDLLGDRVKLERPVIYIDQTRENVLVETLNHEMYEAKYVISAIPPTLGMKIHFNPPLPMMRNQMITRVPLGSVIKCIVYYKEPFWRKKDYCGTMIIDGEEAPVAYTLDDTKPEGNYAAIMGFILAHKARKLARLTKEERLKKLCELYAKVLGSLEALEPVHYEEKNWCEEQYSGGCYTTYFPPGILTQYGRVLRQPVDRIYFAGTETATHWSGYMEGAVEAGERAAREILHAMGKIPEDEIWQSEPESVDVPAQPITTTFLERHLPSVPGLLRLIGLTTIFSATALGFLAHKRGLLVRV
Experiment: MAO B inhibition, fluorometric method
Type: biochemical
Details: read-out: MAO B % inhibition

| item_smiles | inhibition at 1000 µM (%) |
| --- | --- |
| COc1ccc(C(=O)C=Cc2ccc(NC(=O)CN3CCN(C4CCCC4)CC3)cc2)cc1OC | 46.7 |
| C=CCN1CCN(CC(=O)Nc2ccc(C=CC(=O)c3ccc(OC)c(OC)c3)cc2)CC1 | 36.7 |
| COc1ccc(C(=O)C=Cc2ccc(NC(=O)CN3CCN(CCN(C)C)CC3)cc2)cc1OC | 82.2 |
| COc1ccc(C(=O)C=Cc2ccc(NC(=O)CN3CCN(C=O)CC3)cc2)cc1OC | 90.7 |
| COc1ccc(C(=O)C=Cc2ccc(NC(=O)CN3CCN(CCCN(C)C)CC3)cc2)cc1OC | 48.7 |
| COCCN1CCN(CC(=O)Nc2ccc(C=CC(=O)c3ccc(OC)c(OC)c3)cc2)CC1 | 79.5 |
| COc1ccc(C(=O)C=Cc2ccc(NC(=O)CN3CCN(C)CC3)cc2)cc1OC | 84 |
| CCN1CCN(CC(=O)Nc2ccc(C=CC(=O)c3ccc(OC)c(OC)c3)cc2)CC1 | 60.4 |
| COc1ccc(C(=O)C=Cc2ccc(NC(=O)CN3CCN(S(C)(=O)=O)CC3)cc2)cc1OC | 58 |
| COc1ccc(C(=O)C=Cc2ccc(NC(=O)CN3CCN(C(C)C)CC3)cc2)cc1OC | 41.1 |
| COc1ccc(C(=O)C=Cc2ccc(NC(=O)CN3CCN(C(C)=O)CC3)cc2)cc1OC | 92.3 |
| COc1ccc(C(=O)C=Cc2ccc(NC(=O)CN3CCN(CCCO)CC3)cc2)cc1OC | 74.1 |
| C#CCN1CCN(CC(=O)Nc2ccc(C=CC(=O)c3ccc(OC)c(OC)c3)cc2)CC1 | 78.2 |

---

Target: recombinant hMAO B (Homo sapiens)
Sequence (P27338 1-520): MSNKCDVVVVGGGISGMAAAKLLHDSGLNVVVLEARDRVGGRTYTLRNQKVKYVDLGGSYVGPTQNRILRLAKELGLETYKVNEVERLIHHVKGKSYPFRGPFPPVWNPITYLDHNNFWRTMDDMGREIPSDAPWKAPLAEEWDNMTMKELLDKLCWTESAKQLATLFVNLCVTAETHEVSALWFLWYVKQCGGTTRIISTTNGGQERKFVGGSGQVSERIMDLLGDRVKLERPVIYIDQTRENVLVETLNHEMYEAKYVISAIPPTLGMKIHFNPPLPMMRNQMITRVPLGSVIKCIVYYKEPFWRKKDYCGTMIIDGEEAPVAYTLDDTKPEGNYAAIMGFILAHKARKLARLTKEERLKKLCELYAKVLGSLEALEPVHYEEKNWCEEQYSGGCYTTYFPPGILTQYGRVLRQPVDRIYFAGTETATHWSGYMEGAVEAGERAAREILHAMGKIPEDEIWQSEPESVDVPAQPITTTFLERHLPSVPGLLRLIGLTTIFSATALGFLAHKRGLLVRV
Assay: MAO B inhibition, fluorometric method
Assay type: biochemical
Conditions: MAO B IC50, tables
pIC50: −log10 of the molar value.
Catalogue of pIC50 values

| compound | pIC50 |
| --- | --- |
| COc1ccc(C(=O)C=Cc2ccc(NC(=O)CN3CCN(C)CC3)cc2)cc1OC [Compound 4a] | 6.56 |
| C#CCN1CCN(CC(=O)Nc2ccc(C=CC(=O)c3ccc(OC)c(OC)c3)cc2)CC1 [Compound 4e] | < 4.00 |
| COc1ccc(C(=O)C=Cc2ccc(NC(=O)CN3CCN(CCCO)CC3)cc2)cc1OC [Compound 4i] | < 4.00 |
| COc1ccc(C(=O)C=Cc2ccc(NC(=O)CN3CCN(C(C)=O)CC3)cc2)cc1OC [Compound 4g] | 6.94 |
| C=CCN1CCN(CC(=O)Nc2ccc(C=CC(=O)c3ccc(OC)c(OC)c3)cc2)CC1 [Compound 4d] | < 3.00 |
| COc1ccc(C(=O)C=Cc2ccc(NC(=O)CN3CCN(C=O)CC3)cc2)cc1OC [Compound 4f] | 6.86 |
| COc1ccc(C(=O)C=Cc2ccc(NC(=O)CN3CCN(CCCN(C)C)CC3)cc2)cc1OC [Compound 4k] | < 3.00 |
| COc1ccc(C(=O)C=Cc2ccc(NC(=O)CN3CCN(CCN(C)C)CC3)cc2)cc1OC [Compound 4j] | < 4.00 |
| COc1ccc(C(=O)C=Cc2ccc(NC(=O)CN3CCN(S(C)(=O)=O)CC3)cc2)cc1OC [Compound 4m] | < 4.00 |
| CCN1CCN(CC(=O)Nc2ccc(C=CC(=O)c3ccc(OC)c(OC)c3)cc2)CC1 [Compound 4b] | < 4.00 |
| COCCN1CCN(CC(=O)Nc2ccc(C=CC(=O)c3ccc(OC)c(OC)c3)cc2)CC1 [Compound 4h] | < 4.00 |
| COc1ccc(C(=O)C=Cc2ccc(NC(=O)CN3CCN(C4CCCC4)CC3)cc2)cc1OC [Compound 4l] | < 3.00 |
| COc1ccc(C(=O)C=Cc2ccc(NC(=O)CN3CCN(C(C)C)CC3)cc2)cc1OC [Compound 4c] | < 3.00 |
